test system: Puccinia recondite f. sp. tritici; experiment: Test B: wheat leaf rust, preventive spray on wheat seedlings, visual disease rating; format: in vivo; settings: 200 ppm, 100 = 100% disease control, 0 = no control
quantity.name: Test B rating (% disease control) (%)

* CCOC(=O)c1c[n+]([O-])c(C)c(-c2ccccc2)c1-c1cc(OC)cc(OC)c1 | 0
* COc1cc(OC)cc(-c2c(-c3ccc(F)cc3)cnc(C)c2-c2ccccc2)c1 | 0
* CCC(C)c1cnc(C)c(-c2ccc(F)cc2)c1-c1cc(OC)cc(OC)c1 (stereo not shown) | 96
* CCC(O)(CC)c1cnc(C)c(-c2c(F)cc(F)cc2F)c1-c1cc(OC)cc(OC)c1 | 92

Source: patent US20110092544A1
